Target: T1, Full length rat PICK1 (Protein Interacting with C Kinase-1) (rat, UniProt Q9EP80 1-416)
T1 construct: mature; Residues left by the cleaved tag are not described; also called purified PICK1
T1 sequence (Q9EP80 whole entry): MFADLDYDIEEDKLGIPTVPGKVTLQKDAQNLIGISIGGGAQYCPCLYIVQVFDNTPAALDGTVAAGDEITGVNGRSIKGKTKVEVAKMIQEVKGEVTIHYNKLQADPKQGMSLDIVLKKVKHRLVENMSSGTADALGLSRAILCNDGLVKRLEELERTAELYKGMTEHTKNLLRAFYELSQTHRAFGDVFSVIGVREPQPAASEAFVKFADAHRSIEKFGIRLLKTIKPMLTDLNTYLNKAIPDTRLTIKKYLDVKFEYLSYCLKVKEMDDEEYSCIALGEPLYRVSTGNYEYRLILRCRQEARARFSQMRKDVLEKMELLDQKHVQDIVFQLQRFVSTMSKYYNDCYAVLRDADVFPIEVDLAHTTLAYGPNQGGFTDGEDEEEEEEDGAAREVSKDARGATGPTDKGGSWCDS
Assay: FP competition, tracer 5-FAM-(HWLKV)2 10 nM, PICK1 (Example 8)
Ends that are not written are not given here. * marks the point of attachment. Biotin = O=C1N[C@H]2[C@H](CS[C@H]2CCCCC(=O)*)N1; Ahx = NCCCCCC(=O)O
Property: pKi; scope: individual binders
// returns pKi (minus log10 of molar concentration), number only

binder: {Biotin-Ahx}-GEIAKSLKEIAKSLKEIAWSLKEIAKSLKGGGGSHWLKV (also called CC-hex-GS4-HWLKV) [CC-Hex2-GS4-HWLKV]
pKi: 7.64

Recorded pKi of {Biotin-Ahx}-GELAAIKQELAAIKKELAAIKWELAAIKQGGGGSHWLKV (also called CC-tet2-GS4-HWLKV) [CC-Tet-GS4-HWLKV] , please.
8.61
